# Species on record: Rattus norvegicus
# procedureSummary: DrugMatrix - Regimen: Daily Repeat
# Format: toxicity, organism-based, Sprague-Dawley
# Set-up: regimen Daily Repeat, gender Male, age 6-8 weeks
# conditionNotes: in vivo, po, 1500 mg/kg, 120 h, tissue Blood, route oral GAVAGE, dose level High, time 5 day, vehicle .5 % CMC
Here the recorded MONOCYTE is given for each entry.

Consider the following illustrative entries.
INSERT INTO results (compound, reportedvalue) VALUES
  ('O=C(N[C@H](CO)[C@H](O)c1ccc([N+](=O)[O-])cc1)C(Cl)Cl', '2%'),
  ('CO[C@H]1/C=C/O[C@@]2(C)Oc3c(C)c(O)c4c(c3C2=O)C2=NC3(CCN(CC(C)C)CC3)NC2=C(NC(=O)/C(C)=C\C=C\[C@H](C)[C@H](O)[C@@H](C)[C@@H](O)[C@@H](C)[C@H](OC(C)=O)[C@@H]1C)C4=O', '2%'),
  ('Cc1cc(=O)n(-c2ccccc2)n1C [ANTIPYRINE]', '3.67%');

Task: Entry `CNC(=C[N+](=O)[O-])NCCSCc1ccc(CN(C)C)o1` : reported MONOCYTE = ?
Output: 0.33%

----------
# Species: Rattus norvegicus
# procedureSummary: DrugMatrix - Regimen: Daily Repeat
# Format: toxicity, organism-based, Sprague-Dawley
# Parameters: regimen Daily Repeat, gender Male, age 6-8 weeks
# conditionNotes: in vivo, po, 0 mg/kg, 72 h, tissue Blood, route oral GAVAGE, dose level Control, time 3 day, vehicle .5 % CMC
parameterMeasured: MEAN CORPUSCULAR HEMOGLOBIN CONCENTRATION (G/DL)
Field: numeric (G/DL). Do not append units.

Consider the following illustrative entries.
INSERT INTO results (molecule, reportedvalue) VALUES
  ('Clc1ccc2c(c1)C(N1CCNCC1)=Nc1ccccc1O2', 40.27),
  ('C#C[C@]1(O)CC[C@H]2[C@@H]3CCc4cc(OC)ccc4[C@H]3CC[C@@]21C', 38.85),
  ('CN1CCC(=C2c3ccccc3C=Cc3ccccc32)CC1', 36.74),
  ('CNC(=C[N+](=O)[O-])NCCSCc1ccc(CN(C)C)o1', 38.85),
  ('CC(=O)CC(c1ccccc1)c1c(O)c2ccccc2oc1=O (stereo not drawn)', 37.43);

Task: Entry OC(CCN1CCCCC1)(c1ccccc1)C1CCCCC1 (stereo not drawn) : reported MEAN CORPUSCULAR HEMOGLOBIN CONCENTRATION = ?
Output: 38.82

Task: And for CC(C)[C@H]1CC[C@H](C(=O)N[C@H](Cc2ccccc2)C(=O)O)CC1 [NATEGLINIDE] ?
Output: 39.8

Task: And for CN1C(=O)COc2c(C(=O)NC3CN4CCC3CC4)cc(Cl)cc21 (stereo not drawn) ?
Output: 38.88

----------
# Organism: Rattus norvegicus
# procedureSummary: DrugMatrix - Regimen: Daily Repeat
# Type: toxicity, organism-based, Sprague-Dawley
# Design: regimen Daily Repeat, gender Male, age 6-8 weeks
# conditionNotes: in vivo, iv, 0 mg/kg, 72 h, tissue Blood, dose level Control, time 3 day, vehicle 100 % SALINE
Here the recorded MEAN CORPUSCULAR HEMOGLOBIN CONCENTRATION is given for each entry.
Field: numeric (G/DL). Do not append units.

Consider the following illustrative entries.
INSERT INTO assay_data (compound, reportedvalue) VALUES
  ('CC(=O)N[C@@H]1[C@H](Oc2c3cc4cc2Oc2ccc(cc2Cl)[C@@H](O[C@@H]2O[C@@H](CO)[C@@H](O)[C@H](O)[C@@H]2NC(C)=O)[C@@H]2NC(=O)[C@H](NC(=O)[C@@H]4NC(=O)[C@H]4NC(=O)[C@@H](Cc5ccc(c(Cl)c5)O3)NC(=O)[C@H](N)c3ccc(O)c(c3)Oc3cc(O)cc4c3)c3ccc(O)c(c3)-c3c(O[C@H]4O[C@H](CO)[C@@H](O)[C@@H](O)[C@@H]4O)cc(O)cc3[C@@H](C(=O)O)NC2=O)O[C@@H](CO)[C@@H](O)[C@@H]1O', 37.68),
  ('COc1cccc2c1C(=O)c1c(O)c3c(c(O)c1C2=O)C[C@@](O)(C(=O)CO)C[C@@H]3O[C@H]1C[C@H](N)[C@@H](O)[C@H](C)O1 [EPIRUBICIN]', 39.38),
  ('CC[C@]1(O)C[C@@H]2CN(CCc3c([nH]c4ccccc34)[C@@](C(=O)OC)(c3cc4c(cc3OC)N(C)[C@H]3[C@@](O)(C(=O)OC)[C@H](OC(C)=O)[C@]5(CC)C=CCN6CC[C@]43[C@@H]65)C2)C1 [VINBLASTINE]', 39.9),
  ('CCC1=C[C@@H]2CN(C1)Cc1c([nH]c3ccccc13)[C@@](C(=O)OC)(c1cc3c(cc1OC)N(C)[C@H]1[C@@](O)(C(=O)OC)[C@H](OC(C)=O)[C@]4(CC)C=CCN5CC[C@]31[C@@H]54)C2 [VINORELBINE]', 39.28),
  ('COc1cccc2c1C(=O)c1c(O)c3c(c(O)c1C2=O)C[C@@](O)(C(=O)CO)C[C@@H]3O[C@H]1C[C@H](N)[C@H](O)[C@H](C)O1 [DOXORUBICIN]', 39.05);

Task: Entry CCc1c2c(nc3ccc(OC(=O)N4CCC(N5CCCCC5)CC4)cc13)-c1cc3c(c(=O)n1C2)COC(=O)[C@]3(O)CC [IRINOTECAN] : reported MEAN CORPUSCULAR HEMOGLOBIN CONCENTRATION = ?
Output: 39.38

Recorded values, source ChEMBL document CHEMBL3885881.
